- study.system: PARD3 PDZ3 domain (residues 582-685) (human, UniProt Q8TEW0 582-685)
- Sequence (Q8TEW0 582-685): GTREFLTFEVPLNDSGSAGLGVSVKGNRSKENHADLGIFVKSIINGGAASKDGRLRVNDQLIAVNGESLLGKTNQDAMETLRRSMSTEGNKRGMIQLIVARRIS
- assay.name: MST
pKd: −log10 of the molar value. Where no end group is shown, it is not given here.
measured.parameter: pKd

What value of pKd has been reported for the following binder? NLNSSRVLDLLV (not fully specified) [C-terminal SARS-CoV-2-E PBM P71L mutant peptide (12-mer, beta variant B.1.351)]
< 3.00
